experimentDescription: unspecified inhibition readout at 50 µM (AID 740)
settings: unspecified screen
Out of some 96,000 compounds screened, about 65 (0.07%) were called active. Rule as the data show it: active = inhibition above about 25%; inactive = the rest. Only a selection was taken, and actives are over-represented in it overall.
Can you answer with just one of these options? 1 (yes) for active, 0 (no) for inactive

Record excerpt, results attached:
smilesData: Cc1ccc(NC(=S)C2=C(O)c3ccccc3N(C)S2(=O)=O)cc1
categoryLabel: 0 (no)

smilesData: CN1c2ccccc2C(O)=C(C(=O)Nc2ccccc2)S1(=O)=O
categoryLabel: 0 (no)

smilesData: Cc1ccc(NC(=S)C2=C(O)c3sccc3N(C)S2(=O)=O)cc1
categoryLabel: 1 (yes)

smilesData: Cc1ccc(NC(=O)C2=C(O)c3ccccc3N(C)S2(=O)=O)cc1
categoryLabel: 0 (no)

smilesData: Cc1ccc(-c2nnc3ccc(SCC(=O)NCc4ccco4)nn23)cc1
categoryLabel: 0 (no)

Moving on to the next compound.
[in] // param item: CN1c2ccsc2C(O)=C(C(=O)Nc2ccccc2)S1(=O)=O ; yields the recorded call
[out] 1 (yes)
